Study System: Man(a1-3)[Man(a1-6)]Man(b1-4)GlcNAc(b1-4)[Fuc(a1-6)]GlcNAc
Assay Procedure: glycan array binding signal (z-score within array); higher = stronger binding
Particulars: glycan notation: IUPAC condensed, linker removed
Many of the other results were omitted from the sample, so the strongest signals are more common in it than they were.
Could you please report measured glycan array binding signal (z-score) for the items listed next?

Some entries whose results are on file:
| Binder | glycan array binding signal (z-score) |
| --- | --- |
| APVPVTKLVCDGDTYKCTAYLDFGDGRWVAQWDTNVFHTG [PhoSpL (Pholiota squarrosa)] | 6.32 |
| DC-ASGPR S+GEE (Homo sapiens) (protein) MTRTYENFQYLENKVKVQGFKNGPLPLQSLLQRLRSGPCHLLLSLGLGLLLLVIICVVGFQNSKFQRDLVTLRTDFSNFTSNTVAEIQALTSQGSSLEETIASLKAEVEGFKQERQAVHSEMLLRVQQLVQDLKKLTCQVATINNNGEEASTEGTCCPVNWVEHQDSCYWFSHSGMSWAEAEKYCQLKNAHLVVINSREEQNFVQKYLGSAYTWMGLSDPEGAWKWVDGTDYATGFQNWKPGQPDDWQGHGLGGGEDCAHFHPDGRWNDDVCQRPYHWVCEAGLGQTSQESH | -0.295 |
| Nc3LysM (protein) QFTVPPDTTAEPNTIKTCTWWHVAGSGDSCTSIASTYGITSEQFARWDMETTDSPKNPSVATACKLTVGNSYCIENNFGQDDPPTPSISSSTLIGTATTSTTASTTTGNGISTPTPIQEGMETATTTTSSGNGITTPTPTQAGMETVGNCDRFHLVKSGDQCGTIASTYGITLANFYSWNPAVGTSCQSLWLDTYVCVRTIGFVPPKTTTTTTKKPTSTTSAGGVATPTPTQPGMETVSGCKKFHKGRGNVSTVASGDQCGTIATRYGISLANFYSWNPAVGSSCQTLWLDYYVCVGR | 0.04 |
| NPA (Narcissus pseudonarcissus), C0HM45 (protein) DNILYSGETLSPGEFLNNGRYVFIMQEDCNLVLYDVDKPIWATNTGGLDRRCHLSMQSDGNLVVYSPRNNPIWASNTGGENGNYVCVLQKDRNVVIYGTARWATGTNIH | 5.34 |

Which glycan array binding signal (z-score) is listed for LlpA1 (Pseudomonas fluorescens), Q4KHC3 (protein) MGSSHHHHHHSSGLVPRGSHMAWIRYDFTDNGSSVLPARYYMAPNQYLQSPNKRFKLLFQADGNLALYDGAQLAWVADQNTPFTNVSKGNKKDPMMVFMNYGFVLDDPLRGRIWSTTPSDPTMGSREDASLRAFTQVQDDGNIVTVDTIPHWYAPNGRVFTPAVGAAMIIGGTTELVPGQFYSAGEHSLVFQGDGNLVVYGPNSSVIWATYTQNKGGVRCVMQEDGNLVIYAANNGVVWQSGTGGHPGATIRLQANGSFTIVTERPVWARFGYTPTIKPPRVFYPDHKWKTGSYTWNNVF ? -0.367
